# tgt: T1, full length human tau protein 2N4R (hT40) (human, UniProt P10636 1-758)
# T1 construct: recombinant; also called T441
# assayOverview: sandwich ELISA, S1D12 mAb capture, scAb detection
parameter: LoD colourimetric detection (ng/mL)
# unit: ng/mL | format: bare number

In the examples that follow, each entry is paired with its recorded LoD colourimetric detection.
412E10 scAb (scFv, not shown: small tags and cut ends, scAb) scFv: QVQLQESGPSLVKPSQTLSLTCTVSGFSVISDSVAWVRQAPGKVPEWLGASGSSGNKYYNPALKSRLSITRDTSKSQVSLSLSSVTTEDTAVYYCARGIIAGVDVWGRGLLVTVSSEGKSSGASGESKVDDQAVLTQPSSVSGSLGQRVSITCSGSSSNVGYGNYVGWYQQVPGSAPKLLIYGTAIRASGVPDRFSGSRSGDTATLTITSLQAEDEADYYCASYQSNYAFFGSGTRLTVLG
20
CA4 scAb (scFv, not shown: small tags and cut ends, scAb) scFv: QVQLQESGPSLVKPSQTLSLTCTVSGFSLTSYSVYWVRQAPGQALEWISIMYASGRVDYNPALKSRLSITRDTSKSQFSLSLSSVTTEDTAVYYCTRGIENWGPGLLVTVSSEGKSSGASGESKVDDDIQVTQSPSSLSASLTERVSITCRTSQSVNNYLSWYQQKPGQAPKLLIYYATRLYTDVPSRFSGSGSGTDYTLTITSLEADDTATYYCLQYDSTPLAFGGGTNVEIK
6

The binder identified as CC7 scAb (scFv, not shown: small tags and cut ends, scAb) scFv: QVQLQESGPSLVKPSQTLSLTCTVSGFSLTSNAVIWVRQAPGKAPEWVALIDVDGDAAYDPALKSRLSITRDTSKSQVSLSLRSVTTEDTAVYYCARDYGSWGYVSDIDYWGPGLLVTVSSEGKSSGASGESKVDDRVVRTQPSSVSGSLGQRVSITCSGSYITGSSVGWFQQVPGSGLKTVIYDNNDRPSGVPDRFSGSKSGDTATLTISSLQAEDEADYYCASYDTSNIGLFGSGTRLTVLG registered its LoD colourimetric detection at 6
